B1: CCNC (parent)
chain: QSSHYLQWILDKQDLLKERQKDLK

Variants of: B1
measurement_notes: protein stability index of a GFP-peptide fusion (GPS, HEK-293T) (PSI 1-6); higher = more stable;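 further: lentivirally expressed fusions sorted by FACS into six bins by GFP to DsRed ratio, PSI derived from sequencing read proportions per bin multiplied by bin number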
details: c terminus: a fixed tail appended
measured_quantity: protein stability index
Provide a numeric answer; units are not to be included.

Please supply the value of reported protein stability index for the item W8F 3.77

Please supply the value of reported protein stability index for the item D14L 2.8

Please supply the value of reported protein stability index for the item R19V 2.19

Please supply the value of reported protein stability index for the item W8V 3.52

Please supply the value of reported protein stability index for the item Q7I 1.94

Please supply the value of reported protein stability index for the item L10D 4.49

Please supply the value of reported protein stability index for the item L10C 3.86

Please supply the value of reported protein stability index for the item K24T 2.96

Please supply the value of reported protein stability index for the item D14Q 3.48

Please supply the value of reported protein stability index for the item L16A 3.74

Please supply the value of reported protein stability index for the item R19T 3.14

Please supply the value of reported protein stability index for the item L15I 3.11

Please supply the value of reported protein stability index for the item S2I 2.07

Please supply the value of reported protein stability index for the item E18F 2.15

Please supply the value of reported protein stability index for the item I9E 4.87

Please supply the value of reported protein stability index for the item Q20E 2.96

Please supply the value of reported protein stability index for the item E18T 2.7

Please supply the value of reported protein stability index for the item H4Q 2.52

Please supply the value of reported protein stability index for the item E18G 2.53

Please supply the value of reported protein stability index for the item L10G 3.76

Please supply the value of reported protein stability index for the item S3P 3.22

Please supply the value of reported protein stability index for the item K21Y 2.69

FYI, the data here is from the supplement of paper PMC10567573.
